B1: E3 ubiquitin-protein ligase NEDD4-like, residues 539 to 589; numbered along this chain, Q96PU5 (parent)
chain: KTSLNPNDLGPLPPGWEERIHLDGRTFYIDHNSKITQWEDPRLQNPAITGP

- Variants of: B1
- test_summary: abundance fitness (aPCA) (normalised: wild type 0, dead -1); higher = more abundant; growth selection in yeast, the domain comes from the species named
- condition_context: Homo sapiens
// reported abundance fitness per item
Please give the numeric answer without any surrounding text.

Worked examples follow.
| variant_string | abundance fitness |
| --- | --- |
| P13M | -0.799 |
| S3H | -0.223 |
| W16A | -0.342 |
| P11D | -0.025 |
| S33D | -0.267 |
| N45K | 0.029 |
| P46M | 0.084 |
| R19Q | -0.361 |
| T36G | -0.224 |
| G50E | 0.223 |

Answer with reported abundance fitness of `P41N` -0.86

State its abundance fitness: `P46D` -0.028

Fill in reported abundance fitness for this entry: `Q44N` -0.091

Give the measured abundance fitness for `N32C` -0.312

Note abundance fitness for the variant shown: `T49I` -0.226

Complete the entry with abundance fitness for `Q44H` -0.155

Return reported abundance fitness. Input variant: `K1N` -0.041
